- tgt: CD28 (Homo sapiens, UniProt P10747)
- test details: Flow binding to Jurkat/IL2 reporter cells (CD28)
- Design: host or cells: Jurkat cells expressing an IL-2-luciferase reporter
- study conditions: Table E19; MFI at 33.3 nM relative to WT CD80 ECD-Fc (Abcam)
reported endpoint: CD28 Fold change to WT CD80 (fold)
One number for each entry, in fold.

molecule="E35D/M47V/N48K/V68M/L85Q (protein) VIHVTKEVKEVATLSCGHNVSVEELAQTRIYWQKDKKMVLTMMSGDVKIWPEYKNRTIFDITNNLSIMILALRPSDEGTYECVVQKYEKDAFKREHLAEVTLSVKAD" measured_value=0.2
molecule="K89N (protein) VIHVTKEVKEVATLSCGHNVSVEELAQTRIYWQKEKKMVLTMMSGDMNIWPEYKNRTIFDITNNLSIVILALRPSDEGTYECVVLKYENDAFKREHLAEVTLSVKAD" measured_value=0.1
molecule="E35D/D46V/M47V/N48K/V68M (protein) VIHVTKEVKEVATLSCGHNVSVEELAQTRIYWQKDKKMVLTMMSGVVKIWPEYKNRTIFDITNNLSIMILALRPSDEGTYECVVLKYEKDAFKREHLAEVTLSVKAD" measured_value=1.5

# map each molecule to its CD28 Fold change to WT CD80
1. E35D/M47V/N48K/K89N (protein) VIHVTKEVKEVATLSCGHNVSVEELAQTRIYWQKDKKMVLTMMSGDVKIWPEYKNRTIFDITNNLSIVILALRPSDEGTYECVVLKYENDAFKREHLAEVTLSVKAD
2. E35D/N48K (protein) VIHVTKEVKEVATLSCGHNVSVEELAQTRIYWQKDKKMVLTMMSGDMKIWPEYKNRTIFDITNNLSIVILALRPSDEGTYECVVLKYEKDAFKREHLAEVTLSVKAD
3. M47V/V68M (protein) VIHVTKEVKEVATLSCGHNVSVEELAQTRIYWQKEKKMVLTMMSGDVNIWPEYKNRTIFDITNNLSIMILALRPSDEGTYECVVLKYEKDAFKREHLAEVTLSVKAD
4. D46V/M47L/L85Q (protein) VIHVTKEVKEVATLSCGHNVSVEELAQTRIYWQKEKKMVLTMMSGVLNIWPEYKNRTIFDITNNLSIVILALRPSDEGTYECVVQKYEKDAFKREHLAEVTLSVKAD
5. E35D/M47V/V68M/L85Q/K89N (protein) VIHVTKEVKEVATLSCGHNVSVEELAQTRIYWQKDKKMVLTMMSGDVNIWPEYKNRTIFDITNNLSIMILALRPSDEGTYECVVQKYENDAFKREHLAEVTLSVKAD
6. M47V/N48K/K89N (protein) VIHVTKEVKEVATLSCGHNVSVEELAQTRIYWQKEKKMVLTMMSGDVKIWPEYKNRTIFDITNNLSIVILALRPSDEGTYECVVLKYENDAFKREHLAEVTLSVKAD

1. 1.0
2. 0.3
3. 0.5
4. 0.8
5. 0.3
6. 0.5
